# ΔTm per record follows
Tested on: Nucleic Acid
Assay: Compound was evaluated for the increase in melting temperature (delta Tm) for calf Thymus DNA on interaction with Ligand at DNAp to ligand ratio 20:1
Type: functional
Conditions: Bos taurus

Examples with answers:
>>> reading("O=C(CCN1CCCCC1CCO)Nc1ccc2c(c1)C(=O)c1ccc(NC(=O)CCN3CCCCC3CCO)cc1C2=O (stereo not drawn)")
9.2
>>> reading("O=C1c2c(O)ccc(O)c2C(=O)c2c(NCCNCCO)ccc(NCCNCCO)c21 [MITOXANTRONE]")
7.4
>>> reading("CCN(CC)CC(=O)Nc1ccc2c(c1)C(=O)c1ccc(NC(=O)CN(CC)CC)cc1C2=O")
7.7
>>> reading("O=C(CN1CCCCC1)Nc1ccc2c(c1)C(=O)c1ccc(NC(=O)CN3CCCCC3)cc1C2=O")
8.2

Lab note: measured ΔTm of `CCN(CC)CCC(=O)Nc1ccc2c(c1)C(=O)c1ccc(NC(=O)CCN(CC)CC)cc1C2=O` was 7.7

So for `O=C(CCN(CCO)CCO)Nc1ccc2c(c1)C(=O)c1ccc(NC(=O)CCN(CCO)CCO)cc1C2=O` , the logged ΔTm turned out to be 6.1

Reported ΔTm for O=C(CCN1CCCCC1CO)Nc1ccc2c(c1)C(=O)c1ccc(NC(=O)CCN3CCCCC3CO)cc1C2=O (stereo not drawn) was 7.9

Quick note, ΔTm for `O=C(CCN1CCOCC1)Nc1ccc2c(c1)C(=O)c1ccc(NC(=O)CCN3CCOCC3)cc1C2=O` landed at 3
